The reported measurements were obtained from ChEMBL document CHEMBL3885881.

species: Rattus norvegicus; assay: DrugMatrix - Regimen: Daily Repeat; assay type: toxicity, organism-based, Sprague-Dawley; design: regimen Daily Repeat, gender Male, age 6-8 weeks; settings: in vivo, ip, 0 mg/kg, […], tissue Blood, route intraperitoneal, dose level Control, time 14 day, vehicle 100 % SALINE
OBSERVATION TYPE: ABSOLUTE BASOPHIL (cells/µL)

>  <SUBSTANCE>
CADMIUM DICHLORIDE

>  <MEASURED>
130

$$$$

* * *

organism: Rattus norvegicus; assay: DrugMatrix - Regimen: Daily Repeat; type: toxicity, organism-based, Sprague-Dawley; parameters: regimen Daily Repeat, gender Male, age 6-8 weeks; settings: in vivo, po, 0 mg/kg, 120 h, tissue Blood, route oral GAVAGE, dose level Control, time 5 day, vehicle 100 % WATER

>  <COMPOUND>
CC(C)NCC(O)COc1cccc2ccccc12 (stereo not given)

>  <LEUKOCYTE COUNT / x10E3/uL>
14.6

$$$$
>  <COMPOUND>
COc1cc2ncnc(Nc3ccc(F)c(Cl)c3)c2cc1OCCCN1CCOCC1

>  <LEUKOCYTE COUNT / x10E3/uL>
13.43

$$$$
>  <COMPOUND>
ClC(Cl)Cl [CHLOROFORM]

>  <LEUKOCYTE COUNT / x10E3/uL>
8.42

$$$$
>  <COMPOUND>
C[C@@H]1C[C@@H]([C@H](O)CC2CC(=O)NC(=O)C2)C(=O)[C@@H](C)C1 [CYCLOHEXIMIDE]

>  <LEUKOCYTE COUNT / x10E3/uL>
9.78

$$$$
>  <COMPOUND>
CC(C)C[C@H](NC(=O)[C@@H](O)[C@H](N)Cc1ccccc1)C(=O)O

>  <LEUKOCYTE COUNT / x10E3/uL>
15.83

$$$$
